# fold change annotations
experiment: sensitizers of A549 cells to miR-34 induction, primary screen, imaging, A549 dox-inducible miR-34, nuclei and caspase counts (AID 1347080); details: A549 miR-34 inducible, Hoechst nuclei count, 48 h; stronger effect = lower value; cell number ratio, induced over uninduced
Would you mind answering with just the numeric figure?

Some entries whose results are on file:
Compound	Reported
CCCCCCCCCCOc1cc2c(=O)c(C(=O)OCC)c[nH]c2cc1OCC	0.938
Cc1cc(/C=C/c2ccc3cc(N(C)C)ccc3[n+]2C)c(C)n1-c1ccccc1	1.07
C[C@H](CCC(=O)O)[C@H]1CC[C@H]2[C@@H]3[C@H](O)C[C@@H]4C[C@H](O)CC[C@]4(C)[C@H]3CC[C@]12C	0.917
CC(=O)N(CC(O)CO)c1c(I)c(C(=O)NCCO)c(I)c(C(=O)NCC(O)CO)c1I (configuration not stated)	0.937
O=C(N/N=C/c1ccc([N+](=O)[O-])o1)c1ccc(O)cc1	0.844

Consider the record given below.
Exercise: Input NC(CO)(CO)CO , output reported fold change.
Key: 0.909

----------
experiment: LFS_MB_2R medulloblastoma cell growth inhibition, synergistic combos for chromothripsis tumors, cisplatin combos (AID 1671457); details: LFS_MB_2R medulloblastoma cells, at 0.5 µM, stronger effect = higher value;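 note: cells exposed to compound for four days before readout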
Experimental readout: inhibition (%)
Numbers only here, please. The scale is %.

Some entries whose results are on file:
> print(dat)
                                   compound  experimental.readout  reported
1               O=C(CCCCCCC(=O)Nc1ccccc1)NO            inhibition     -2.63
2                 COc1c2ccoc2cc2oc(=O)ccc12            inhibition     -16.1
3  CN1CCN(c2c(F)cc3c(=O)c(C(=O)O)cn4c3c2OCN4C)CC1            inhibition     -13.7
4  CN1CCN(c2c(F)cc3c(=O)c(C(=O)O)cn(CCF)c3c2F)CC1            inhibition       7.8
5  N=c1ccn2c(n1)O[C@H]1[C@H](O)[C@@H](CO)O[C@H]12            inhibition     -10.7

Exercise: Input O=c1cc[nH]c(=O)[nH]1 , output reported inhibition.
Key: -17.4

Exercise: Input Nc1ncn([C@H]2C[C@H](O)[C@@H](CO)O2)c(=O)n1 , output reported inhibition.
Key: -4.56

Exercise: Input CC1(C(=O)O)CCC2(C)CCC3(C)C(=CC(=O)C4C5(C)CCC(OC(=O)CCC(=O)O)C(C)(C)C5CCC43C)C2C1 (stereo unspecified) , output reported inhibition.
Key: -24.3

Exercise: Input CN(N=O)C(=O)NC1C(O)OC(CO)C(O)C1O (stereo unspecified) , output reported inhibition.
Key: -6.59

Exercise: Input CCOC(=O)Nc1ccc(NCc2ccc(F)cc2)nc1N , output reported inhibition.
Key: -26.1

Exercise: Input O=c1[nH]c(=O)n([C@H]2C[C@H](O)[C@@H](CO)O2)cc1C(F)(F)F , output reported inhibition.
Key: -13.5

----------
test: ovarian cancer cell viability with rucaparib, profiling panel, oncology-focused library, rucaparib conditional (AID 1508598); details: patient-derived ovarian cancer cells, CellTiter-Glo viability, 144 h; at 0.00488 µM; OCI-C5x cells; without rucaparib
Active and inactive are the calls of the source.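 The calls were made as follows: active = normalized viability below 100% at a tested concentration; inactive = the rest.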
Tick one outcome: 1 (active), -1 (inactive)

Study these solved cases before continuing.
> print(dat)
                               smiles.input  cat
1         O=C(CCc1ccc(O)cc1)c1c(O)cc(O)cc1O   -1
2  COc1nc(N)nc2c1ncn2[C@@H]1O[C@H](CO)[C@@H](O)[C@@H]1O    1
3               CN(C)c1nc(N(C)C)nc(N(C)C)n1   -1
4  C#Cc1cccc(Nc2ncnc3cc(OCCOC)c(OCCOC)cc23)c1   -1
5  Nc1ncn([C@H]2C[C@H](O)[C@@H](CO)O2)c(=O)n1   -1
6  COc1cc2ncnc(Nc3ccc(F)c(Cl)c3)c2cc1OCCCN1CCOCC1   -1
7  COc1c(C)c2c(c(O)c1C/C=C(\C)CCC(=O)O)C(=O)OC2   -1
8  Nc1nc(Cl)nc2c1ncn2[C@@H]1O[C@H](CO)[C@@H](O)[C@@H]1F   -1

Exercise: What did the test return for O=C(NOCC1CC1)c1ccc(F)c(F)c1Nc1ccc(I)cc1Cl ?
Key: -1

Exercise: What did the test return for O=C(O[C@@H]1Cc2c(O)cc(O)cc2O[C@@H]1c1cc(O)c(O)c(O)c1)c1cc(O)c(O)c(O)c1 ?
Key: -1

Exercise: What did the test return for Cc1ccc(-n2nc(C(C)(C)C)cc2NC(=O)Nc2ccc(OCCN3CCOCC3)c3ccccc23)cc1 ?
Key: -1

Exercise: What did the test return for CC(C)n1c(/C=C/[C@@H](O)C[C@@H](O)CC(=O)O)c(-c2ccc(F)cc2)c2ccccc21 ?
Key: 1
